Give measured TGI for each item. Keep answers brief.
- System: SF-295 CNS
- EXPERIMENTAL DETAILS: NCI tumour cell line growth inhibition, 48 h

Here's what some known entries look like.
COc1cc2c(cc1O)C1(Cc3ccc4c(c3C1=O)OCO4)N(C)CC2 (stereo not drawn) | > 100 µM
O=C1NNC2NC(=O)C3(NN2C1=O)c1ccccc1-c1ccccc13 (stereo not drawn) | > 100 µM
Cn1c2ccccc2c(=O)c2cccc(C(=O)NCC(=O)O)c21 | > 100 µM
CC(=O)OC[C@@]12Cc3ccc(C)c(O)c3[C@]1(C)[C@@H](OC(C)=O)[C@]1(O)[C@H]([C@@H](OC(=O)c3ccccc3)[C@@H](C)[C@H]1OC(C)=O)[C@H]2OC(C)=O | > 50 µM

Go through the list and state TGI for each entry.
1. Cc1ccc(C(=O)/C(=C\c2ccc([N+](=O)[O-])cc2)S(=O)Cc2ccc(Cl)cc2)cc1 (stereo not drawn)
2. CC1=C(O)/C(=C/C(C)CCC/C(C)=C/C=C/C(C)CCCc2ccoc2)OC1=O (stereo not drawn)
3. O=NNc1ccc(Sc2ccc(NN=O)cn2)nc1

1: 4.28 µM; 2: 81 µM; 3: > 100 µM

Return reported TGI; argument: C/C(=C\c1cc(C(F)(F)F)n(-c2ccc(N)cc2)n1)[C@@H]1C[C@@H]2O[C@]2(C)CCC[C@H](C)[C@H](O)[C@@H](C)C(=O)C(C)(C)[C@@H](O)CC(=O)O1
1.39 µM

====

Give measured TGI for each item. Keep answers brief.
- Tested on: UACC-62 melanoma
- EXPERIMENTAL DETAILS: NCI tumour cell line growth inhibition, 48 h
Give bare numbers, in µM.

Here's what some known entries look like.
COC(=O)C(COC(=O)/C=C/c1ccc(OC(C)=O)c(OC(C)=O)c1)NC(=O)/C=C/c1ccc(OC(C)=O)c(OC(C)=O)c1 (stereo not given) | 35.1
CC1(N)CCN(c2cnc(-c3cccc(Cl)c3Cl)c(N)n2)CC1 | 39.9
CN(C)CCNc1c2ccccc2nc2oc3ccccc3c12 | 23.5

Return reported TGI; argument: CCOC(=O)c1c(C)n(C)c2c1cc(O)c1[nH]c3c(c12)CCCC3
35.8

====

- System: NCI-H23 lung
- EXPERIMENTAL DETAILS: NCI tumour cell line growth inhibition, 48 h; in the data active = GI50 below about 0.43 µM; inactive = the rest
Would you mind answering with one of these outcomes? active, inactive

CC(=O)O[C@H]1[C@@H]2OC(=O)C(CSc3ccccc3)[C@@H]2C[C@H]2O[C@]2(C)CC/C=C(\C)CCC[C@@H]1C (some centres undefined) | inactive
CC(CN(C)C)Oc1ccccc1NC1=C(Cl)C(=O)C(Nc2ccccc2OC(C)CN(C)C)=C(Cl)C1=O (centres undefined) | active
Oc1c(Cl)cc(Cl)cc1C(c1cc(Cl)cc(Cl)c1O)C(Cl)(Cl)Cl | inactive

Recorded test call requested for N#C/C(=C\c1ccc(Br)cc1)n1nnc2cc(Cl)c(Cl)cc21
inactive

Recorded test call requested for CN1CCN(c2ccc(NC(=O)c3cncnc3Nc3ccc(OCc4ccccn4)c(Cl)c3)cc2)CC1
inactive

Recorded test call requested for CCOC(=O)C1=C(C)N(Cc2ccc(Cl)cc2Cl)C2(O)C=CC(=O)C3=C(O)c4ccccc4C(=O)C312 (centres undefined)
inactive

Recorded test call requested for CO/N=C(\COc1ccc2oc(-c3ccccc3)cc(=O)c2c1)c1ccc(OC)cc1
inactive

Recorded test call requested for C=C1C(=O)O[C@H]2[C@H]1CC/C(COC(=O)C(C)c1ccc(CC(C)C)cc1)=C\CC[C@@]1(C)O[C@@H]21 (some centres undefined)
inactive

Recorded test call requested for CN(CC(=O)Nc1nc2ccccc2[nH]1)S(=O)(=O)c1ccc(Cl)cc1
inactive

====

- Test system: HT29 colon
- EXPERIMENTAL DETAILS: NCI tumour cell line growth inhibition, 48 h
Give measured GI50 for each item. Keep answers brief.

Here's what some known entries look like.
CC(=O)O[C@H](C[C@H](C(C)C)N(C)C(=O)[C@@H](NC(=O)[C@H]1CCCN1C)C(C)C)c1nc(C(=O)N[C@@H](Cc2ccccc2)C[C@H](C)C(=O)O)c(C)s1 | < 1.67 nM
COC(=O)C12OCC34C(CC5C(C)C6=CC(=O)OC6=CC5(C)C3C(O)C1O)OC(=O)C(O)C24 (stereo unspecified) | 1680 nM
O=[N+]([O-])c1cc(C(F)(F)F)ccc1Sc1ccc(C(F)(F)F)cc1[N+](=O)[O-] | 3280 nM
Cc1cn2c(/C=N/N=C(N)N)c(-c3ccccn3)nc2s1 | 19400 nM
O=C(O)c1c(=O)cccc2ssc12 | 1890 nM

Go through the list and state GI50 for each entry.
1. COc1ccc2c(c1)C(=O)/C(=C/c1ccc([N+](=O)[O-])o1)O2
2. Cc1cc(N2CCOCC2)nc(N(CCCNc2ccnc3cc(Cl)ccc23)Cc2ccco2)n1
3. O=C(N/N=C/c1ccc(O)cc1O)c1cccc(Nc2ccnc(C(F)(F)F)c2)c1
4. CC1=C(C(=O)Nc2cc(Cl)c3[nH]ncc3c2)C(c2ccc(C(F)(F)F)cc2)CC(=O)N1 (stereo unspecified)
5. CN(CC(=O)Nc1nc2ccccc2[nH]1)S(=O)(=O)c1ccc(Cl)cc1
6. O=C1c2ccccc2-c2c1c1c(O)cccc1n2Cc1ccccn1

1. 954 nM
2. 1830 nM
3. 5140 nM
4. > 25000 nM
5. > 100000 nM
6. 88600 nM

Go through the list and state GI50 for each entry.
1. O=C1C=CC(=O)N1c1cccc(N2C(=O)C=CC2=O)c1
2. CO/N=C(\COc1ccc2oc(-c3ccccc3)cc(=O)c2c1)c1ccc(OC)cc1
3. Cc1ccc(C(=O)/C(=C\c2ccc([N+](=O)[O-])cc2)S(=O)Cc2ccc(Cl)cc2)cc1 (stereo unspecified)
4. C=C(CO)[C@@H]1CC[C@]2(COC3CCCCO3)CC[C@]3(C)[C@H](CC[C@@H]4[C@@]5(C)C=C(C=O)C(=O)C(C)(C)[C@@H]5CC[C@]43C)[C@@H]12 (stereo partly specified)
5. O=C(Nc1cccc(-c2ccc(Cl)c(C(F)(F)F)c2)c1)C1CCN(Cc2cccc3cccnc23)CC1

2300 nM
19700 nM
1880 nM
327 nM
1210 nM

====

- System: RPMI-8226 leukemia
- EXPERIMENTAL DETAILS: NCI tumour cell line growth inhibition, 48 h
MEASURE NAME: TGI (µM)
Answers are plain numbers, in µM.

Here's what some known entries look like.
O=C1/C(=C/c2ccc(Oc3ccccc3)cc2)N=C(c2ccccc2)N1c1ccc(S(=O)(=O)Nc2nccs2)cc1 | 32.3
Nc1ccc(C23CC4CC(C2)CC(c2ccc(N)cc2)(C4)C3)cc1 | 27.4
CCn1c(-c2nonc2N)nc2c(C#CC(C)(C)O)ncc(OC[C@H]3CCCNC3)c21 | 50.5

// moving on: another record for TGI
Return reported TGI; argument: CCCCCCCCCNC(=O)/C=C/c1ccc(O)c(O)c1
19.4

====

- System: SNB-19 CNS
- EXPERIMENTAL DETAILS: NCI tumour cell line growth inhibition, 48 h
Where a SMILES comes first, the peptide text is derived from it. [ ]: non-standard residue; d: D form. The star is where a group is joined. dTle = CC(C)(C)[C@@H](N)C(=O)O; 4Abz = Nc1ccc(C(=O)O)cc1; NHOH = ON*
Give measured GI50 for each item. Keep answers brief.

Here's what some known entries look like.
Fc1cccc(-n2ccc(-c3ccccc3)nc2=S)c1 | 12.9 µM
O=C(/C=C/C12c3ccccc3C(c3ccccc31)C1C(=O)NC(=O)C12)c1ccc(F)cc1 (centres undefined) | 1.65 µM
CN(C)CCNc1c2ccccc2nc2oc3ccccc3c12 | 6.88 µM

Go through the list and state GI50 for each entry.
1. NS(=O)(=O)c1ccc(N(/C=C/C(=O)C(F)(F)F)Cc2ccc(Cl)cc2)cc1
2. CC(=O)[CH-]C(=O)c1ccccc1.CC(=O)[CH-]C(=O)c1ccccc1.Cc1cc([O-])ccc1Cl.Cc1cc([O-])ccc1Cl.[Ti+4]
3. C/C(O)=C(\C#N)C(=O)Nc1ccc(C(F)(F)F)cc1

41.9 µM
26.7 µM
24.5 µM

Go through the list and state GI50 for each entry.
1. O=C(Nc1cccc(Cl)c1)c1cccc(NC2=C(Cl)C(=O)N(Cc3ccccc3)C2=O)c1
2. C[C@@H](NC(=O)[C@H](NC(=O)[C@@H]1CCCN1C(=O)CNC(=O)c1ccc(N)cc1)C(C)(C)C)C(=O)NO (H-[4Abz]GP[dTle][dA]-{NHOH})

1. > 100 µM
2. > 100 µM

Return reported GI50; argument: NS(=O)(=O)CC1CC[CH-]CC1.[Cl-].[Cl-].[Cl-].[Cl-].[Cl-].[Sb+5].c1ccncc1
> 100 µM

====

- Tested on: HOP-62 NSCLC
- EXPERIMENTAL DETAILS: NCI tumour cell line growth inhibition, 48 h
Give measured TGI for each item. Keep answers brief.

Here's what some known entries look like.
Cc1cccc(C(C)(C)C)c1NC(=O)CCc1nc(=S)[nH][nH]1 | > 100 µM
CC1=C(O)/C(=C/C(C)CCC/C(C)=C/C=C/C(C)CCCc2ccoc2)OC1=O (stereo unspecified) | 59.6 µM
O=C(O)CCC(N=NNc1ccc(-c2nc3ccccc3[nH]2)cc1)C(=O)O (stereo unspecified) | > 100 µM

Go through the list and state TGI for each entry.
1. CCOC(=O)c1c(C)n([O-])c2cc(Cl)c(Cl)cc2[n+]1=O
2. C=C1CC2CC(O)CC(C1)C2 (stereo unspecified)
3. CC(C)(C)OC(=O)NCCNCCNc1ccccc1

["57.8 µM", "> 100 µM", "> 100 µM"]
